# System: P. falciparum stage V gametocytes
# Design: BacTiter-Glo ATP luminescence viability of purified stage V gametocytes in 384-well plates, per cent inhibition versus DMSO
# TEST PARAMETERS: 48 h, 5 µM; inhibitor
Screen size: about 13,000 compounds; about 3,200 (25%) showed an effect of 50% or more. The list shows a part of the results.
// No strictly below 10% in % Inhibition; Yes otherwise

Check if % Inhibition >= 10% (inclusive). Item: Cn1cc(-c2ccccc2C(=O)O)c(=O)c2cc(Cl)ccc21 [TCMDC-123861]
No

Check if % Inhibition >= 10% (inclusive). Item: Cc1ccccc1NC1=NC(=S)N(c2cccc(C(F)(F)F)c2)C12CCC(C(C)(C)C)CC2 (centres unmarked) [TCMDC-125677]
Yes

Check if % Inhibition >= 10% (inclusive). Item: Cc1cc(Nc2ccccc2)nc(Nc2ccccc2C)n1 [TCMDC-123883]
No

Check if % Inhibition >= 10% (inclusive). Item: Nc1ccc2[nH]cc(C3CCN(CCC4CCN(C(=O)/C=C/c5ccc(Cl)c(Cl)c5)CC4)CC3)c2n1 [TCMDC-140062]
Yes

Check if % Inhibition >= 10% (inclusive). Item: O=C(NCC1CCC(C(=O)NC2CCCc3ccccc32)CC1)c1ccc(O)c(-c2cccc([N+](=O)[O-])c2)c1 (centres unmarked) [TCMDC-140882]
Yes

Check if % Inhibition >= 10% (inclusive). Item: Cc1cc2c(cc1C(F)(F)F)N(C(=O)Nc1cc(OCCN(C)C)cc(C(F)(F)F)c1)CC2 [TCMDC-139873]
Yes

Check if % Inhibition >= 10% (inclusive). Item: c1ccc(CN2CCN(CCCCNc3c4ccccc4nc4ccccc34)CC2)cc1 [TCMDC-138009]
Yes

Check if % Inhibition >= 10% (inclusive). Item: Cl.c1ccc(CN2CCN(CCNc3c4ccccc4nc4ccccc34)CC2)cc1 [TCMDC-137571]
Yes
